- assayed system: Ca^+2-calmodulin dependent myosin light chain phosphorylation (Bos taurus, UniProt Q28824)
- experiment: Inhibition of myosin light chain phosphorylation (MLCP), Silver et al.
- Assay type: biochemical
- recorded conditions: 100µM; read-out: Antag. of MLCP (percent inhibition of myosin light chain phosphorylation)
metric name: inhibition at 100 µM (%)

// known answers, use as guide
Entry CC1=C(C(=O)OCCOc2ccccc2)C(c2cccc(Cl)c2Cl)C2=C(CNCC2=O)N1 (centres unmarked) , inhibition at 100 µM reported as 69

Entry CO[C@@H](COC(=O)C1=C(C)NC2=C(C(=O)CNC2)C1c1c(F)c(F)c(F)c(F)c1F)c1ccccc1 (some centres unmarked) , inhibition at 100 µM reported as 70

Entry CC1=C(C(=O)OCCCCOc2ccccc2)C(c2c(F)c(F)c(F)c(F)c2F)C2=C(CNCC2=O)N1 (centres unmarked) , inhibition at 100 µM reported as 77

P. COC(COC(=O)C1=C(C)NC2=C(C(=O)CNC2)C1c1c(F)cccc1Cl)c1ccccc1 (centres unmarked)
Q. CC1=C(C(=O)OC(C)COc2ccccc2)C(c2c(F)c(F)c(F)c(F)c2F)C2=C(CNCC2=O)N1 (centres unmarked)
R. CC1=C(C(=O)OCCOc2ccccc2)C(c2c(F)ccc(F)c2F)C2=C(CNCC2=O)N1 (centres unmarked)
Rank order required: inhibition at 100 µM, descending. # answer = labels listed in requested order
Q, P, R

A. COC(COC(=O)C1=C(C)NC2=C(C(=O)CNC2)C1c1c(F)c(F)c(F)c(F)c1F)c1ccccc1 (centres unmarked)
B. COC(COC(=O)C1=C(C)NC2=C(C(=O)CNC2)C1c1ccccc1C(F)(F)F)c1ccccc1 (centres unmarked)
Parameter metric = inhibition at 100 µM. Return the lower-valued option from A and B . Field: selected label. Fill in the label of the entry you choose.
B

====

- Tested on: isolated paced intact rabbit atria
- experiment: Cardiac depressant (negative inotropic) effect in isolated paced rabbit atria
- recorded conditions: Oryctolagus cuniculus; rabbit atria paced at 3Hz, 30°C, cumulative dosing; read-out: IC25 (concentration which produces 25% inhibition of isometric force)
We begin with a simple list: items and their reported IC25.
The figure you give is taken to be in nM; do not add the unit.

// known answers, use as guide
Entry CC1=C(C(=O)OCCOc2ccccc2)C(c2cccc(Cl)c2Cl)C2=C(CNCC2=O)N1 (stereo not shown) , IC25 reported as 2500

Entry CC1=C(C(=O)OCCOc2ccccc2)C(c2c(F)c(F)c(F)c(F)c2F)C2=C(CNCC2=O)N1 (single isomer, unassigned) [Example 4] , IC25 reported as 800

Entry CC1=C(C(=O)OCCOc2cccc(Cl)c2Cl)C(c2c(F)ccc(Cl)c2Cl)C2=C(CNCC2=O)N1 (stereo not shown) , IC25 reported as 700

***
Entry CC1=C(C(=O)OCCOc2ccccc2)C(c2c(F)c(F)c(F)c(F)c2F)C2=C(CNCC2=O)N1 (racemic) [Example 2] , IC25 reported as 1000

====

- assayed system: Ca^+2-calmodulin dependent myosin light chain phosphorylation (Bos taurus, UniProt Q28824)
- experiment: Inhibition of myosin light chain phosphorylation (MLCP), Silver et al.
- Assay type: biochemical
- recorded conditions: 50µM; read-out: Antag. of MLCP (percent inhibition of myosin light chain phosphorylation)
metric name: inhibition at 50 µM (%)

// known answers, use as guide
Entry COC(COC(=O)C1=C(C)NC2=C(C(=O)CNC2)C1c1c(F)c(F)c(F)c(F)c1F)c1ccccc1 (centres unmarked) , inhibition at 50 µM reported as 48

Entry CC1=C(C(=O)OCCc2ccccc2)C(c2c(F)c(F)c(F)c(F)c2F)C2=C(CNCC2=O)N1 (centres unmarked) , inhibition at 50 µM reported as 64

Entry CC1=C(C(=O)OCCOc2ccccc2)C(c2c(F)ccc(Cl)c2Cl)C2=C(CNCC2=O)N1 (centres unmarked) , inhibition at 50 µM reported as 50

Entry CO[C@@H](COC(=O)C1=C(C)NC2=C(C(=O)CNC2)C1c1c(F)c(F)c(F)c(F)c1F)c1ccccc1 (some centres unmarked) , inhibition at 50 µM reported as 56

Entry CC1=C(C(=O)OCCOc2ccccc2)C(c2c(F)c(F)c(F)c(F)c2F)C2=C(CNCC2=O)N1 (racemic) [Example 2] , inhibition at 50 µM reported as 54

A. CC1=C(C(=O)OCCOc2cccc(Cl)c2Cl)C(c2c(F)ccc(Cl)c2Cl)C2=C(CNCC2=O)N1 (centres unmarked)
B. CC1=C(C(=O)OCCOc2ccccc2)C(c2c(F)ccc(C)c2Cl)C2=C(CNCC2=O)N1 (centres unmarked)
C. CO[C@H](COC(=O)C1=C(C)NC2=C(C(=O)CNC2)C1c1c(F)c(F)c(F)c(F)c1F)c1ccccc1 (single isomer, unassigned) [Example 8 Diastereomer A]
Arrange the 3 compounds by rising inhibition at 50 µM, starting with the smallest. # answer = labels listed in requested order
B, C, A
(B: 18%, C: 28%, A: 60%)
